- Experimental System: T1, human IL-13 (recombinant E. coli-expressed) (human, UniProt P35225 35-146)
- T1 construct: also called hIL-13
- T1 sequence (P35225 other isoform, or with tags, fused parts or gaps limits assumed): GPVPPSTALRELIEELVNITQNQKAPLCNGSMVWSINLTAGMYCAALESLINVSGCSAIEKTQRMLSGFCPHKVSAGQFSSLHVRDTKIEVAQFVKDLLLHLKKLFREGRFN
- Run Description: Biacore T100 SPR, purified mAb captured on anti-human IgG, IL13 analyte, 1:1 fit
Observation Type: kon (M⁻¹ s⁻¹)
Please reply with the bare figure in M⁻¹ s⁻¹ and do not write the unit itself.

Q) Return reported kon; argument: A1Y100B TrpL1 (antibody, human IgG1, kappa, V domains shown, CDRH3 variant of A1L1) VH: QVQLVQSGAEVKKPGSSVKVSCKASGFYIKDTYMHWVRQAPGQGLEWMGTIDPANGNTKYVPKFQGRVTITADESTSTAYMELSSLRSEDTAVYYCARSIYDDYHWDDYYAMDYWGQGTLVTVSS VL: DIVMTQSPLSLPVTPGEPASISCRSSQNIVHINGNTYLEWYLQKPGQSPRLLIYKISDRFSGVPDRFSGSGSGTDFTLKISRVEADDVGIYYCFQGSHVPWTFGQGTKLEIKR
A) 2.38e+06

New cases:
Q) Return reported kon; argument: A1Y100B AlaL1 (antibody, human IgG1, kappa, V domains shown, CDRH3 variant of A1L1) VH: QVQLVQSGAEVKKPGSSVKVSCKASGFYIKDTYMHWVRQAPGQGLEWMGTIDPANGNTKYVPKFQGRVTITADESTSTAYMELSSLRSEDTAVYYCARSIYDDYHADDYYAMDYWGQGTLVTVSS VL: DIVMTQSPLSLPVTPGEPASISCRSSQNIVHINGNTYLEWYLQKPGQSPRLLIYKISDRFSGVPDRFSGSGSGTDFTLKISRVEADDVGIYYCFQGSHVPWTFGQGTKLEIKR
A) 810000
